Test: self-splicing fitness, log relative to wild type (ln ratio); higher = more splicing; Tetrahymena group I intron in knt gene, E. coli kanamycin selection, DiMSum; sequences stand for … in CUCUCU…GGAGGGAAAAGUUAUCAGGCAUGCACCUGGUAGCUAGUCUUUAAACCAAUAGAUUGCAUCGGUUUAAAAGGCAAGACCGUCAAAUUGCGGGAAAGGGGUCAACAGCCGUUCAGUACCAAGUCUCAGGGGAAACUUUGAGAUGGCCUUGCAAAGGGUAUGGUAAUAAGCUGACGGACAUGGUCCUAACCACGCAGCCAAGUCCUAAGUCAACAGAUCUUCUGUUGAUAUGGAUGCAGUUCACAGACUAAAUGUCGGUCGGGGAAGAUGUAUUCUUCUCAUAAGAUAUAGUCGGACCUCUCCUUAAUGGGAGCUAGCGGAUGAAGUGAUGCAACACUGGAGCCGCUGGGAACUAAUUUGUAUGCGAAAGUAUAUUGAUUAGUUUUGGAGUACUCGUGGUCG;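 further: selection with 25 µg/mL kanamycin versus none on LB agar overnight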
Conditions: 30 °C
Returns one of label 1 or label 0; label 1 when self-splicing fitness (ln) is >= -3.

UAAAAGCAAUAUUACGUGGU	label 0
GGUCAGCAAUAUUACGGCUC	label 1
UUCUAGCAAUAUUACGCUUG	label 0
GUAGAGCAAUAUUACGCAUA	label 1

Please indicate if the recorded self-splicing fitness (ln) for UCAGAGCAAUAUUACGGUGC meets or exceeds -3.
label 0

Please indicate if the recorded self-splicing fitness (ln) for UAAUAGCAAUAUUACGUCGC meets or exceeds -3.
label 0
